Test system: A498 renal
assay-comment: NCI-60 one-dose screen, 48 h (100 = growth as untreated, 0 = no growth, -100 = all killed)
applied-conditions: 10 µM unless noted
The panel holds about 83,000 compounds, 20% with a hit somewhere; the sample as a whole holds those more often. The source made the active and inactive calls. Rule for the calls: active = growth percent below 10; inactive = the rest.
# Lookup of reported growth keyed by entry

molecule | growth
Cn1nc(C(F)(F)F)cc1-c1cc(Cl)c(OCc2ccc(Cl)cc2)c(-c2ccc(Cl)c(C(F)(F)F)c2)c1O | -41.9% (active)
COc1cccc(NC(=O)c2c(-c3ccccc3)c(-c3ccccc3)n[nH]c2=O)c1 | 96.9% (inactive)
O=C(Nc1ccc2[nH]c3ccccc3c2c1)c1ccccc1Cl | 44.7% (inactive)
CCN(CC)CCCC(C)N/C(c1cccc(OC)c1)=c1\c(=O)[nH]n(-c2c3ccccc3nc3ccccc23)c(=O)\c1=C(/NC(C)CCCN(CC)CC)c1cccc(OC)c1 (stereo not drawn) | -85.9% (active)
O=c1c2sc3ccccc3c2nnn1-c1ccc(F)c(Cl)c1 | 56.6% (inactive)
Clc1ccccc1Nc1nnc(-c2ccncc2)s1 | 92.1% (inactive)
c1ccc2c(c1)cnc1ccccc12 | -7.57% (active)
O=C(Oc1c(Cl)c(Cl)c(Cl)c(Cl)c1Cl)C1CCCN1C(=O)OCc1ccccc1 (stereo not drawn) | 12.3% (inactive)
Cc1nc2c(-c3cnc(N)nc3)nc(N3CCOCC3)nc2n1C(C)C | -39.2% (active)
COc1cc(NC(C)CCCN)c2ncccc2c1Oc1ccc(Cl)cc1 (stereo not drawn) | 71.1% (inactive)
COc1cc2nccc(Oc3ccc(NC(=O)C4(C(=O)Nc5ccc(F)cc5)CC4)cc3)c2cc1OC(=O)c1ccc(N)cc1 | 64% (inactive)
Fc1ccc2nc(-c3ccc(-c4noc(-c5ccc(Cl)cc5)n4)cc3)[nH]c2c1 | 81% (inactive)
O=C(Cc1ccc(Nc2ccnc(C(F)(F)F)c2)cc1)N/N=C/c1ccccc1O | 145% (inactive)
O=C(O)c1cn(-c2ccccc2)nc1-c1ccc(O)cc1 | 74.3% (inactive)
CCOc1cccc(/C=N/NC(=O)c2ccc(Nc3ccnc(C(F)(F)F)c3)cc2)c1O | -2.13% (active)
C=C1NC(=O)C(C(C)CC)NC(=O)C2CSCC(NC(=O)CCC(=O)O)C(=O)NC(Cc3ccccc3)C(=O)NC(C)C(=O)NC(CC(C)CC)C(=O)NC(C(=O)NC(Cc3ccccc3)C(=O)N3CCCC3C(=O)N2)C(C)OC(=O)C(CO)NC(=O)C(C(O)COC)N(C)C(=O)C(C(C)C)NC(=O)C(CC(C)CC)NC1=O (stereo not drawn) | -11.8% [6 µM] (active)
Cc1nc2n[nH]c(N)c2nc1C | 120% (inactive)
COc1cc(-c2nc(-c3nc4cc(C(=O)c5ccccc5)ccc4[nH]3)cc3c2[nH]c2ccccc23)cc(OC)c1OC | 105% (inactive)

* * *

Test system: KM12 colon
assay-comment: NCI-60 one-dose screen, 48 h
applied-conditions: 10 µM unless noted
Protocol: Growth inhibition of the KM12 human tumor cell line is measured as a screen for anti-cancer activity. Cells are grown in 96 well plates and exposed to the test compound for 48 hours. Compounds are tested at a single concentration, which is 10^-5 M for most compounds. The reported endpoint is percent growth (GI% or GIPRCNT), where numbers from 0 - 100% represent growth inhibition, and numbers from -100% - 0 represent cell death. For example, a value of 40 represents 60% growth inhibition. […]
About 83,000 compounds went through this panel and 20% of them were active in at least one assay; those are over-represented in the sample as a whole. Active and inactive are the calls of the source. Rule for the calls: active = growth percent below 10; inactive = the rest.
Labels: active, inactive

compound | classification
COc1ccc(-c2nnc(SCC(=O)Nc3ccc(C(=O)/C=C/c4ccc(Cl)cc4)cc3)n2-c2ccccc2)cc1 | inactive
Cc1ccccc1CNc1ncnc2[nH]ncc12 | inactive
C#CC[C@@H]1C[C@]2(C)[C@H]3CC[C@@H]4[C@H]5C(C(=C)C)CC[C@]5(C(=O)NCCN(CCN)CCN)CC[C@@]4(C)[C@]3(C)CC[C@H]2C(C)(C)[C@H]1OC(C)=O (stereo not given in full) | inactive
FC(F)(F)C1=NNC(c2ccc3ccccc3c2)=NN1 | inactive
O=NN(CC(=O)NNc1ccccc1)CC(=O)NNc1ccccc1 | inactive
CCN(CC)CCCC(C)N/C(c1cccc(OC)c1)=c1\c(=O)[nH]n(-c2c3ccccc3nc3ccccc23)c(=O)\c1=C(/NC(C)CCCN(CC)CC)c1cccc(OC)c1 (stereo not given) | active
Cc1ccc(NC(=O)Cn2nncc2CN2C(=O)CSC2=O)cc1C | inactive
CCCCCCCCCCCCCCCc1cc(O)ccc1[N+](=O)[O-] | inactive
CCOC(C)(c1ccc(Cl)cc1)C1CCNCC1 (stereo not given) | inactive
CCN(CC)CCC(CNc1ccnc2cc(Cl)ccc12)c1ccc(O)cc1 (stereo not given) | inactive
N#Cc1c(N)n(C2OC(CO)C(O)C2O)c2ncnc(N)c12 (stereo not given) | active
COc1cccc(OCC(O)CN2CCN(c3ccccc3)CC2)c1 (stereo not given) | inactive
CCOc1cccc(/C=N/NC(=O)Cc2ccc(Nc3ccnc(C(F)(F)F)c3)cc2)c1O | inactive
COc1ccc(C(=O)C(C#N)c2cc(OC)c(OC)c(OC)c2)cc1 (stereo not given) | inactive
O=C1Nc2ccccc2/C1=C/c1c[nH]c2ccccc12 | inactive
COc1cc(-c2nc(-c3nc4cc(C(=O)c5ccccc5)ccc4[nH]3)cc3c2[nH]c2ccccc23)cc(OC)c1OC | inactive
COc1ccc2nc(C)cc(Nc3ccccc3O)c2c1 | inactive
Brc1ccccc1Cn1c(-c2cncs2)nc2ccccc21 | inactive
CCCCNCCC(O)c1cc2ccc(C(F)(F)F)cc2c2cc(C(F)(F)F)ccc12 (stereo not given) | active
CN(CCO)c1ccc(N2Cc3ccccc3OC3=C2C(=O)c2c(O)ccc(O)c2C3=O)cn1 | active
O=C1Cc2c([nH]c3ccc([N+](=O)[O-])cc23)-c2ccccc2N1 | active
Cc1cc2nc3c(=O)[nH]c(=O)nc-3n(CC=O)c2cc1C | inactive
COc1ccc(C(=O)C(CN(C)C)c2ccccc2)cc1 (stereo not given) | active
C[C@@H](C[C@H](CC1CC1)c1ccccc1)c1ccc2ccccc2c1 | inactive
O=C(Cn1nncc1CN1C(=O)CSC1=O)Nc1ccc(F)cc1 | inactive
COC(=O)CNS(=O)(=O)c1ccc2c(c1)Cc1cc(S(=O)(=O)NCC(=O)OC)ccc1-2 | inactive
COc1c(-c2cc(-c3ccc(C)o3)[nH]c(=O)n2)c(O)cc2occc12 | inactive
CC1=NOCC(=O)N1 | inactive
Fc1ccc2c(CN3CCO[C@H](COc4cccc(Cl)c4)C3)c[nH]c2c1 | inactive
O=C(C=P(c1ccccc1)(c1ccccc1)c1ccccc1)CCl | active
O=[N+]([O-])c1cc(F)c2cccnc2c1O | inactive
COC1=CC(c2ccc[nH]2)=N/C1=C\c1[nH]c(C)c(C(=O)CCCCCCCCC(=O)O[C@H]2CC[C@H]3C4CCc5cc(O)ccc5C4CC[C@]23C)c1C (stereo not given in full) | inactive
CCCCCc1c(C)[nH]c(/C=C2\N=C(c3ccc[nH]3)C=C2CC)c1C | active
c1ccc(C(CC2=NCCCN2)c2ccccc2)cc1 | inactive
CCOC(CN1CCN(CC(C)C(=O)c2ccccc2)CC1)c1ccccc1 (stereo not given) | inactive
Fc1[nH]nc2ccc([C@@H]3Nc4ccc5[nH]ncc5c4[C@H]4C5CCC(C5)[C@@H]34)cc12 (stereo not given in full) | inactive
COc1cccc2nc(Nc3cccc(NC(=O)c4ccc(N5CCN(C)CC5)c(C(F)(F)F)c4)c3)ccc12 | active
Cc1ccc(N2C3c4ccccc4N(S(=O)(=O)c4ccc(C)cc4)C2c2ccccc2N3S(=O)(=O)c2ccc(C)cc2)cc1 | inactive
C[C@]12CCc3nc(Nc4ccc(O)cc4)sc3C1=CC[C@@H]1[C@@H]2CC[C@]2(C)/C(=N/NC(N)=S)CC[C@@H]12 | active
COc1ccc2cc(-c3nc(C)c(C(C)=O)c(-c4ccc(C)cc4)n3)ccc2c1 | inactive
